# credit: PubChem BioAssay AID1159580

TEST DESCRIPTION: chemical genetic growth profiling, strain panel (AID 1159580);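 further: tested at 20 µM; growth read once vehicle control cultures reached saturation at 30 °C; 1 = growth at the plate median or of vehicle wells; lower values mean less growth of the strain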
MEASUREMENT CONDITIONS: S. cerevisiae deletion strains, growth OD, locus YGR252W, strain gcn5, stronger effect = lower value
Hit rate of the full screen: of about 5,500 compounds, about 2,000 (36%) were called active. Inconclusive results (about 18%) are left out. This is one part of the list.
MEASURED PARAMETER: normalized growth
Give bare numbers.

# annotated cases, reported normalized growth shown
- COMPOUND: "OCCN(CCO)c1nc(N2CCCCC2)c2nc(N(CCO)CCO)nc(N3CCCCC3)c2n1"
  MEASURED PARAMETER: "normalized growth"
  TEST RESULT: 0.931
- COMPOUND: "CC1(C)C2CC[C@]3(C)C(C(=O)C=C4[C@@H]5C[C@@](C)(C(=O)O)CC[C@]5(C)CC[C@]43C)[C@@]2(C)CC[C@@H]1OC(=O)CCC(=O)O (stereo partly specified)"
  MEASURED PARAMETER: "normalized growth"
  TEST RESULT: 1.04
- COMPOUND: "COC1C(O)C(O)C(O)[C@@H](O)C1O (stereo partly specified)"
  MEASURED PARAMETER: "normalized growth"
  TEST RESULT: 0.972

Go through the items and report each one's normalized growth.
1. COc1cc(O)c2c(=O)cc(C)oc2c1CC=C(C)C
2. COc1c(CC=C(C)C)c2c(c3oc(=O)c(-c4ccc(OC(C)=O)cc4)c(OC(C)=O)c13)C=CC(C)(C)O2
3. CC1(C)C2CC[C@]3(C)C(C(=O)C=C4[C@@H]5C[C@@](C)(C(=O)O)CC[C@]5(C)CC[C@]43C)[C@@]2(C)CC[C@@H]1O (stereo partly specified)
4. O=C1C[C@@H](c2ccccc2)Oc2cc(O)cc(O)c21
5. CC(C)N(C(=O)CCl)c1ccccc1

Response given:
0.839
1.1
0.833
0.595
0.958

Could I get normalized growth for every one of these entries?
1. O=C(O)C1CC([C@@H]2CCCCN2)CN2CCCCC12 (stereo partly specified)
2. CCCCCC(C)N (stereo unspecified)
3. COc1ccc(C(=O)c2ccccc2)c(O)c1
4. C[C@@H]1O[C@@H](O[C@H]2[C@@H](Oc3cc(O)c4c(c3)O[C@H](c3ccc(O)cc3)CC4=O)O[C@H](CO)[C@@H](O)[C@@H]2O)[C@H](O)[C@H](O)[C@H]1O

Response given:
1: 1.05; 2: 1.05; 3: 0.666; 4: 0.991

Please go through the list and note normalized growth for each compound.
1. NC(N)=NOCC[C@H](N)C(=O)O
2. NC(=O)c1ncn([C@@H]2O[C@H](CO)[C@@H](O)[C@H]2O)c1O
3. COc1cc(O)c(C(=O)c2ccccc2)cc1O
4. O=C1CC(c2ccc(O)cc2)Oc2ccccc21 (stereo unspecified)
5. Cc1cc(=O)c2c(O)c(C)c(O)cc2o1
6. COc1c2c(c(CC=C(C)C)c3oc(=O)c(-c4ccc(O)cc4)c(O)c13)OC(C)(C)C=C2
7. CC(C)(C)CC(C)(C)c1ccc(OCCOCC[N+](C)(C)Cc2ccccc2)cc1

Response given:
1. 1.01
2. 1.01
3. 1
4. 0.718
5. 0.815
6. 0.696
7. 0.98

// for each compound in input: emit normalized growth
1. CC1(C)C2CC[C@]3(C)C(C(=O)C=C4[C@H]5C[C@@](C)(C(=O)O)CC[C@]5(C)CC[C@]43C)[C@@]2(C)CC[C@@H]1O (stereo partly specified)
2. COC(=O)[C@@H]1C(O)CC[C@H]2CN3CCc4c([nH]c5ccccc45)[C@@H]3C[C@@H]21 (stereo partly specified)

Response given:
[0.935, 1.01]

Give normalized growth for each listed item.
1. Cc1cc(C(C)(C)CC(C)(C)C)ccc1OCCOCC[N+](C)(C)Cc1ccccc1
2. C=CC1=C(C(=O)O)N2C(=O)[C@@H](NC(=O)/C(=N/O)c3csc(N)n3)[C@H]2SC1
3. C[N+](C)(C)CCOP(=O)([O-])OP(=O)(O)OC[C@H]1OC(n2ccc(N)nc2=O)[C@H](O)[C@@H]1O (stereo partly specified)
4. COc1ccc(C2CC(=O)c3ccc(OC)cc3O2)cc1 (stereo unspecified)
5. CC(=C(CCOP(=O)(O)O)SC(=O)c1ccccc1)N(C=O)Cc1cnc(C)nc1N

Response given:
1. 0.165
2. 1
3. 1.02
4. 0.628
5. 1
